IC50, GST-ALK5 (Homo sapiens, UniProt P36897), per-entry values.

Examples from the recorded data:
COc1nc(-c2ccc(C)s2)c2c(N)c(C(N)=O)sc2n1    100 to 500 nM
NC(=O)c1sc2nc(OC[C@H](O)CO)nc(-c3cccc(Cl)c3)c2c1N    100 to 500 nM
Cc1cccc(-c2nc(OCCO)nc3sc(C(N)=O)c(N)c23)n1    < 100 nM
COc1nc(-c2cccc(C(F)(F)F)c2)c2c(N)c(C(N)=O)sc2n1    100 to 500 nM

Quick one: give me IC50 for each item below, same order please.
1. Cc1ccc(-c2nc(OCCCO)nc3sc(C(N)=O)c(N)c23)o1
2. NC(=O)c1sc2nc(OCCCCC3NC(=O)NC3=O)nc(-c3cccc(Cl)c3)c2c1N (stereo not drawn)
3. Cc1ccc(-c2nc(O[C@@H](C)[C@H](C)O)nc3sc(C(N)=O)c(N)c23)o1
4. NC(=O)c1sc2nc(OCCCN3CCCC3=O)nc(-c3cccc(Cl)c3)c2c1N
5. NC(=O)c1sc2nc(OCC3CCC3)nc(-c3cccc(Cl)c3)c2c1N

1: 100 to 500 nM; 2: < 100 nM; 3: 100 to 500 nM; 4: 100 to 500 nM; 5: 100 to 500 nM
